# Tested on: NOMO1
# Procedure details: cell viability relative to DMSO control; higher = less cytotoxic
# Condition description: RPMI 5 mM glucose + 10% FBS; 48 h; 15.4 µM
// values below are reported cell viability
Output spec: scalar in %, unitless text.

Reference set, count: 3
C[C@@H]1C[C@H]2[C@@H]3CC\C4=C\C(=O)\C=C/[C@]4(C)[C@@]3(Cl)[C@@H](O)C[C@]2(C)[C@@]1(OC(=O)C5=CC=CO5)C(=O)CCl; 70.5
Cc1ccc(C(=O)c2cc(O)c(O)c([N+](=O)[O-])c2)cc1; 87.3
CC(C)(C)NC(=O)[C@H]1CC[C@H]2[C@@H]3CC[C@H]4NC(=O)\C=C/[C@]4(C)[C@H]3CC[C@]12C; 18.7

# lookup: cell viability of `Oc1cc(O)cc(/C=C/c2ccc(O)c(O)c2)c1` 72.3
